Taken from ChEMBL document CHEMBL1799977.

Assay: Clearance in dog at 3 mg/kg, po or 1 mg/kg, iv
Assay type: ADME, organism-based, Canis lupus familiaris
Conditions: in vivo
READOUT LABEL: clearance (mL/min/kg)
Reply with just the number (in mL/min/kg).

Task: GET /values?readout=clearance&item= `O=C(NC1CC1)c1cn(-c2cccc(-c3ccc([C@@H]4C[C@H]4C(=O)O)c(F)c3)c2)c2ncccc2c1=O`
Output: 3.7

----------
System: Plasma
Assay: Drug level in plasma of Lister rat during conditional taste aversion test
Type: ADME, cell-free
READOUT LABEL: concentration (nM)
Reply with just the number (in nM).

Would you please look over these solved cases?
[[record]]
compound = "O=C(NC1CC1)c1cn(-c2cccc(-c3ccc([C@@H]4C[C@H]4C(=O)O)c(F)c3)c2)c2ncccc2c1=O"
readout_units = "nM"
reported_measurement = 12000

[[record]]
compound = "Cc1noc(/C(=C/c2cccc(-c3cc(C(C)(C)S(C)(=O)=O)cc4cccnc34)c2)c2ccc(S(C)(=O)=O)cc2)n1"
readout_units = "nM"
reported_measurement = 113


Task: Return concentration measured with Plasma given this compound: O=C(NC1CC1)c1cn(-c2cccc(C#Cc3ccc[n+]([O-])c3)c2)c2ncccc2c1=O [MK-0873]
Output: 828
